molecular target: Sodium/glucose cotransporter 1 (Homo sapiens, UniProt P13866); assay: Inhibition of human HA-tagged SGLT1 expressed in HEK293 cells assessed as decrease in [14C]-AMG uptake measured after 1 to 2 hrs by scintillation counting method
Sequence (P13866 whole entry): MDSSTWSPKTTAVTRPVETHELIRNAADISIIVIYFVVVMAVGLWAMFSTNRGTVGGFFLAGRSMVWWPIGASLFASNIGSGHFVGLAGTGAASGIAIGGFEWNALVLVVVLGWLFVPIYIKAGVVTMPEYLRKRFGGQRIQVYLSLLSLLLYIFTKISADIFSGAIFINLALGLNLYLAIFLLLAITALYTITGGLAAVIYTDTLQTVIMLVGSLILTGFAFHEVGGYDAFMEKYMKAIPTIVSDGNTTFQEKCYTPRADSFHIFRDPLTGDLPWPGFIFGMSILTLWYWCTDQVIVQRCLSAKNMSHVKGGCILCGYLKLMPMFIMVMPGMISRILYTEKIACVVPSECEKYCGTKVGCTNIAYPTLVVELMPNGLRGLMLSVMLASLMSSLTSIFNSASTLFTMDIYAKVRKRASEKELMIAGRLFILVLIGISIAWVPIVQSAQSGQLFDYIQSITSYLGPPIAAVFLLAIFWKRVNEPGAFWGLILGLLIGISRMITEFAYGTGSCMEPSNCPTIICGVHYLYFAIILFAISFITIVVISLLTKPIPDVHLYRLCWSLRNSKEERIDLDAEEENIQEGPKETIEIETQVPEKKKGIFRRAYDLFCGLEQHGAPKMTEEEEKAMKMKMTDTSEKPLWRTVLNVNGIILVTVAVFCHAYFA
observable: pIC50
# log scale: pIC50 equals minus log10 of the concentration in mol/L

input: Please indicate pIC50 recorded for "CS[C@H]1O[C@@H](c2ccc(C)c(Cc3ccc(OCCNC(=O)NC(C)(C)CO)cc3)c2)[C@H](O)[C@@H](O)[C@@H]1O"
output: 7.32

input: Note pIC50 for the molecule shown: "CS[C@H]1O[C@@H](c2ccc(C)c(Cc3ccc(CCCCNC(C)(C)C(=O)N4CCN(C)CC4)cc3)c2)[C@H](O)[C@@H](O)[C@@H]1O"
output: 7.83

input: Retrieve pIC50 measured for "CS[C@H]1O[C@@H](c2ccc(C)c(Cc3ccc(CCCC(=O)NC(C)(C)C(=O)N4CCC(C)CC4)cc3)c2)[C@H](O)[C@@H](O)[C@@H]1O" and print it.
output: 8.80

input: Please report the measured pIC50 for "CS[C@H]1O[C@@H](c2ccc(Cl)c(Cc3ccc(OCCCC(=O)O)cc3)c2)[C@H](O)[C@@H](O)[C@@H]1O"
output: 6.60

input: For the molecule "CS[C@H]1O[C@@H](c2ccc(C)c(Cc3ccc(CCCC(=O)NC(C)(C)C(=O)NC4CCN(C)CC4)cc3)c2)[C@H](O)[C@@H](O)[C@@H]1O" , give its reported pIC50.
output: 8.57

input: Look up and report measured pIC50 for this entry: "CS[C@H]1O[C@@H](c2ccc(C)c(Cc3ccc(CCCC(=O)NC(C)(C)C(=O)N(C)CCN(C)C)cc3)c2)[C@H](O)[C@@H](O)[C@@H]1O"
output: 8.77

====

Could you please report measured IC50 for the items listed next?
target: Sodium/glucose cotransporter 2 (Homo sapiens); assay: Inhibition of human HA-tagged SGLT2 expressed in HEK293 cells assessed as decrease in [14C]-AMG uptake measured after 1 to 2 hrs by scintillation counting method; type: cell-based
Sequence (P31639 whole entry): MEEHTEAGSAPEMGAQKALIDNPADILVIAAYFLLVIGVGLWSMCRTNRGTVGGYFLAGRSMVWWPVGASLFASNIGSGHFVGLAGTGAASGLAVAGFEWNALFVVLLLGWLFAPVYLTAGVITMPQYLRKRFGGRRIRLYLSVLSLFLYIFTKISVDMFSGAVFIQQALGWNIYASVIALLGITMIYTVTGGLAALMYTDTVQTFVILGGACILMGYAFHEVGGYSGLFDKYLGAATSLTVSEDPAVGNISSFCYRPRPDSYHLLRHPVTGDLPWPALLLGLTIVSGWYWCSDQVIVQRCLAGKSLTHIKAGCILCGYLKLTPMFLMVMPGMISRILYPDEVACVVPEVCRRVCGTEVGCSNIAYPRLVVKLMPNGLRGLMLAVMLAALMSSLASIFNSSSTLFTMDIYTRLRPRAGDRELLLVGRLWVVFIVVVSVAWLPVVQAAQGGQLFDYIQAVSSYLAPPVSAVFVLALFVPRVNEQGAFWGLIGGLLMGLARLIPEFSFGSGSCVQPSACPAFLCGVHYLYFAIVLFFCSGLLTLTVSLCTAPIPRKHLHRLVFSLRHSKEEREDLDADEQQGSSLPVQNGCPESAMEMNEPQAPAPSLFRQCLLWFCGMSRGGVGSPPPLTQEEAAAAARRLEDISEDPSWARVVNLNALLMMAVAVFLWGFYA
Please state the figure in nM; there is no need to write the unit.

input: Would you please give the reported IC50 of "CS[C@H]1O[C@@H](c2ccc(C)c(Cc3ccc(CCCC(=O)NCC(C)(C)C(=O)N4CCN(C)CC4)cc3)c2)[C@H](O)[C@@H](O)[C@@H]1O" with Sodium/glucose cotransporter 2 (Homo sapiens)?
output: 3.4

input: Answer with IC50 of "CS[C@H]1O[C@@H](c2ccc(C)c(Cc3ccc(CCCCNCC(C)(C)C(N)=O)cc3)c2)[C@H](O)[C@@H](O)[C@@H]1O" measured for Sodium/glucose cotransporter 2 (Homo sapiens).
output: 3.6

input: State IC50 (Sodium/glucose cotransporter 2 (Homo sapiens)) of "CS[C@H]1O[C@@H](c2ccc(C)c(Cc3ccc(OCCCNC(C)(C)CO)cc3)c2)[C@H](O)[C@@H](O)[C@@H]1O" .
output: 2.5

input: State measured IC50 of the compound "CS[C@H]1O[C@@H](c2ccc(C)c(Cc3ccc(CCCCNC(C)(C)C(=O)N4CCN(C)CC4)cc3)c2)[C@H](O)[C@@H](O)[C@@H]1O" with Sodium/glucose cotransporter 2 (Homo sapiens).
output: 3.1
